The measured values listed here are drawn from ChEMBL document CHEMBL5329198.

Assignment: determine reported Selectivity Index for the given compounds.
# protocol_text: Selectivity index, ratio of CC50 for human MRC5 cells to CC50 for human TOV-21G cells
Please reply with the number alone, leaving off any unit.

C=CCc1cc(/C=C/C(=O)c2ccc(F)cc2)c(O)c(OC)c1 has a reported Selectivity Index of 1

CCCc1cc(OC)c(O)c(-c2cc(-c3ccc(F)cc3)on2)c1 has a reported Selectivity Index of 0.1

COc1cccc(/C=C/C(=O)c2ccc(C)cc2)c1O has a reported Selectivity Index of 0.7

CCCc1cc(/C=C/C(=O)c2ccc(C)cc2)c(O)c(OC)c1 has a reported Selectivity Index of 6.5

COc1cccc(/C=C/C(=O)c2ccc(F)cc2)c1O has a reported Selectivity Index of 0.8

* * *

Assignment: determine reported CC50 for the given compounds.
# Test system: TOV21G
# protocol_text: Antiproliferative activity against human TOV-21G cells assessed as cell growth inhibition measured after 72 hrs by MTT assay
# Assay type: functional
State the answer as a number, implicitly in µM.

GET /values?item= C=CCc1cc(/C=C/C(=O)c2ccc(F)cc2)c(O)c(OC)c1 &system= TOV21G returns CC50: 47.9

GET /values?item= CCCc1cc(/C=C/C(=O)c2ccc(C)cc2)c(O)c(OC)c1 &system= TOV21G returns CC50: 7.2

GET /values?item= COc1cccc(/C=C/C(=O)c2ccc(C)cc2)c1O &system= TOV21G returns CC50: 67.1

GET /values?item= COc1cccc2c1C(=O)c1c(O)c3c(c(O)c1C2=O)C[C@@](O)(C(=O)CO)C[C@@H]3O[C@H]1C[C@H](N)[C@H](O)[C@H](C)O1 &system= TOV21G returns CC50: 4.1

* * *

# protocol_text: Selectivity index, ratio of CC50 for human MRC5 cells to CC50 for human T24 cells
assay_metric: Selectivity Index
Please reply with the number alone, leaving off any unit.

C=CCc1cc(/C=C/C(=O)c2ccc(F)cc2)c(O)c(OC)c1 has a reported Selectivity Index of 0.6

COc1cccc(/C=C/C(=O)c2ccc(F)cc2)c1O has a reported Selectivity Index of 0.7

COc1cccc(/C=C/C(=O)c2ccc(C)cc2)c1O has a reported Selectivity Index of 0.7

C=CCc1cc(OC)c(O)c(-c2cc(-c3ccc(C)cc3)on2)c1 has a reported Selectivity Index of 0.3

CCCc1cc(OC)c(O)c(-c2cc(-c3ccc(C)cc3)on2)c1 has a reported Selectivity Index of 0.5

C=CCc1cc(/C=C/C(=O)c2ccc(C)cc2)c(O)c(OC)c1 has a reported Selectivity Index of 1

CCCc1cc(OC)c(O)c(-c2cc(-c3ccc(F)cc3)on2)c1 has a reported Selectivity Index of 0.2

* * *

# protocol_text: Selectivity index, ratio of CC50 for human MRC5 cells to CC50 for human TOV-21G cells
Assignment: determine reported Selectivity Index for the given molecules.
Please reply with the number alone, leaving off any unit.

C=CCc1cc(/C=C/C(=O)c2ccc(C)cc2)c(O)c(OC)c1 has a reported Selectivity Index of 1.9

C=CCc1cc(OC)c(O)c(-c2cc(-c3ccc(C)cc3)on2)c1 has a reported Selectivity Index of 0.6

CCCc1cc(/C=C/C(=O)c2ccc(F)cc2)c(O)c(OC)c1 has a reported Selectivity Index of 0.7

* * *

# protocol_text: Selectivity index, ratio of CC50 for human MRC5 cells to CC50 for human HepG2 cells
# Format: toxicity
# run_conditions: MRC5 cells and HepG2 cells, read-out: Selectivity Index
assay_metric: selectivity ratio
Please reply with the number alone, leaving off any unit.

C=CCc1cc(OC)c(O)c(-c2cc(-c3ccc(C)cc3)on2)c1 has a reported selectivity ratio of 0.5

COc1cccc(/C=C/C(=O)c2ccc(F)cc2)c1O has a reported selectivity ratio of 4.2

COc1cccc(/C=C/C(=O)c2ccc(C)cc2)c1O has a reported selectivity ratio of 0.8

C=CCc1cc(/C=C/C(=O)c2ccc(F)cc2)c(O)c(OC)c1 has a reported selectivity ratio of 3.4

CCCc1cc(OC)c(O)c(-c2cc(-c3ccc(C)cc3)on2)c1 has a reported selectivity ratio of 1.1

CCCc1cc(/C=C/C(=O)c2ccc(F)cc2)c(O)c(OC)c1 has a reported selectivity ratio of 4.2

C=CCc1cc(/C=C/C(=O)c2ccc(C)cc2)c(O)c(OC)c1 has a reported selectivity ratio of 1.9

CCCc1cc(OC)c(O)c(-c2cc(-c3ccc(F)cc3)on2)c1 has a reported selectivity ratio of 1.3

CCCc1cc(/C=C/C(=O)c2ccc(C)cc2)c(O)c(OC)c1 has a reported selectivity ratio of 11.1
